A-selectivity: recorded values
Assay: Selectivity for bovine Monoamine oxidase A as ratio of Ki(MAO-B)/Ki(MAO-A)
measurementName: A-selectivity

# compound, measurementName, comparativeSign, numericResult
records = [
    ("CN(C)C(C(=O)c1cccn1C)c1ccccc1 (centres undefined)", "A-selectivity", "=", 500),
    ("Cn1cccc1C(=O)[C@H](c1ccccc1)N1CCCCC1", "A-selectivity", "=", 4100),
    ("Cn1cccc1C(=O)C(c1ccccc1)N1CCSCC1 (centres undefined)", "A-selectivity", ">", 1000),
    ("Cn1cccc1C(O)C(c1ccccc1)N1CCCCC1 (single isomer, unassigned; form 1)", "A-selectivity", ">", 19),
    ("Cn1cccc1C(=O)[C@@H](c1ccccc1)N1CCSCC1", "A-selectivity", "=", 5260),
    ("Cn1cccc1C(=O)C(c1ccccc1)N1CCN(Cc2ccccc2)CC1 (centres undefined)", "A-selectivity", "=", 11),
    ("Cn1cccc1C(O)C(c1ccccc1)N1CCCCC1 (stereo in doubt)", "A-selectivity", "=", 77),
    ("Cn1cccc1C(=O)C(N)c1ccccc1 (centres undefined)", "A-selectivity", "=", 442),
    ("Cn1cccc1C(=O)[C@H](c1ccccc1)N1CCSCC1", "A-selectivity", "=", 1220),
    ("CCOc1ccc(NC(C(=O)c2cccn2C)c2ccccc2)cc1 (centres undefined)", "A-selectivity", ">", 121),
    ("Cn1cccc1C(=O)C(c1ccccc1)N1C(=O)c2ccccc2C1=O (centres undefined)", "A-selectivity", ">", 123),
    ("Cn1cccc1C(O)CN1CCCCC1 (centres undefined)", "A-selectivity", "=", 47),
    ("Cn1cccc1C(=O)C(c1ccccc1)N1CCOCC1 (centres undefined)", "A-selectivity", ">", 286),
    ("Cn1cccc1C(=O)C(c1ccccc1)N1CCCCC1 (racemic)", "A-selectivity", "=", 5210),
    ("Cn1cccc1C(O)C(c1ccccc1)N1CCCCC1 (racemic; form 1)", "A-selectivity", "=", 0.29),
    ("Cn1cccc1C(O)C(c1ccccc1)N1CCCCC1 (racemic; form 2)", "A-selectivity", "=", 140),
    ("Cn1cccc1C(O)C(c1ccccc1)N1CCCCC1 (single isomer, unassigned; (-))", "A-selectivity", "=", 0.31),
    ("CN1CCN(C(C(=O)c2cccn2C)c2ccccc2)CC1 (centres undefined)", "A-selectivity", ">", 288),
    ("Cn1cccc1C(O)C(c1ccccc1)N1CCCCC1 (single isomer, unassigned; form 2)", "A-selectivity", "=", 0.18),
]

###

Measured Ki values are reported for all entries that follow.
Biological target: Amine oxidase [flavin-containing] B (Bos taurus)

# compound, Ki
measured = [
    ("Cn1cccc1C(O)C(c1ccccc1)N1CCCCC1 (single isomer, unassigned; form 1)", "> 10 µM"),
    ("Cn1cccc1C(=O)C(c1ccccc1)N1CCCCC1 (racemic)", "500 µM"),
    ("CC(C(=O)c1cccn1C)N1CCCCC1 (stereo unspecified)", "36 µM"),
    ("Cn1cccc1C(=O)[C@@H](c1ccccc1)N1CCSCC1", "400 µM"),
    ("Cn1cccc1C(O)CN1CCCCC1 (stereo unspecified)", "23.9 µM"),
    ("Cn1cccc1C(=O)[C@@H](c1ccccc1)N1CCCC1", "700 µM"),
    ("Cn1cccc1C(=O)C(c1ccccc1)N1CCN(Cc2ccccc2)CC1 (stereo unspecified)", "10 µM"),
    ("Cn1cccc1C(=O)[C@H](c1ccccc1)N1CCSCC1", "100 µM"),
    ("Cn1cccc1C(O)C(c1ccccc1)N1CCCCC1 (single isomer, unassigned; form 2)", "1.24 µM"),
    ("Cn1cccc1C(=O)C(c1ccccc1)N1C(=O)c2ccccc2C1=O (stereo unspecified)", "> 100 µM"),
    ("Cn1cccc1C(=O)C(N)c1ccccc1 (stereo unspecified)", "42 µM"),
]
